test_target: T1, VPAC1 receptor (UniProt P32241 31-457, limits assumed)
T1 sequence (looked up): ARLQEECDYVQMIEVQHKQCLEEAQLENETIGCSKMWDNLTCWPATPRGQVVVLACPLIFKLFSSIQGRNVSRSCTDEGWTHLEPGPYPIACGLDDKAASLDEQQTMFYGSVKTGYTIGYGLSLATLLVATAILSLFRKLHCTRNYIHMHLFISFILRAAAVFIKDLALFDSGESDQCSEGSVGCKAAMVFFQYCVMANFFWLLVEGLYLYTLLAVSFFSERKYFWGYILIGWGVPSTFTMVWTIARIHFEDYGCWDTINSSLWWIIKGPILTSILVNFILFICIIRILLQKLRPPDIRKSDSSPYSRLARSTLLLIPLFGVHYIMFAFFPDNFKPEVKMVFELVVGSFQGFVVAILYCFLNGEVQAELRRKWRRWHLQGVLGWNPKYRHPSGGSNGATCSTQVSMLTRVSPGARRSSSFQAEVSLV
experiment_notes: cell-based or functional assay
parameter_measured: EC50 (VPAC1R), cAMP inducing effect (pM)

The cases that follow already have their EC50 (VPAC1R), cAMP inducing effect on record.
EC50 (VPAC1R), cAMP inducing effect for HSXGIFTDSYSRYRKQMAVKKYLAAVL (Tz (aspartic acid with carboxyl group replaced by tetrazole) at position 3; C-terminal amide (NH2)) [Peptide 3] is 101

EC50 (VPAC1R), cAMP inducing effect for HSXGIFTXSYSRYRKALAVKKYLAAVL (N-terminal acetyl (Ac-); Tz (aspartic acid with carboxyl group replaced by tetrazole) at positions 3 and 8; C-terminal amide (NH2)) [Peptide 17] is 132

a. HSXGIFTXSYSRYRKQMAVKKYLAAVL (N-terminal acetyl (Ac-); Tz (aspartic acid with carboxyl group replaced by tetrazole) at positions 3 and 8; C-terminal amide (NH2)) [Peptide 10]
b. HSXGIFTXSYARYRKQLAVKKYLAAVL (N-terminal acetyl (Ac-); Tz (aspartic acid with carboxyl group replaced by tetrazole) at positions 3 and 8; C-terminal amide (NH2)) [Peptide 16]
Between the entries labelled a and b , which has a larger EC50 (VPAC1R), cAMP inducing effect value on record? Write the label of whichever entry you select.
a
